# System: MIA PaCa-2
# METHOD_DESCRIPTION: Cytotoxicity against human MIAPaCa2 cells after 48 hrs by MTT assay
# Type: functional, cell-based
# MEASUREMENT_CONDITIONS: MIA PaCa-2, 48 h
ENDPOINT_LABEL: IC50 (µM)
Give bare numbers, in µM.

Hi, could you look up IC50 for each item in my list?
1. c1ccc(-c2nc(-c3c[nH]c4ccccc34)co2)cc1
2. Clc1ccc(-c2nc(-c3c[nH]c4ccccc34)co2)cc1
3. c1ccc2c(-c3cocn3)c[nH]c2c1
4. c1ccc(Cc2nc(-c3c[nH]c4ccccc34)co2)cc1
5. Fc1ccc(-c2nc(-c3c[nH]c4ccccc34)co2)cc1

Out:
1. 113
2. 326
3. 1000
4. 1000
5. 40.6

Given item "Cc1nc(-c2c[nH]c3ccccc23)co1" , the value recorded as its IC50 is 688
